# selectivity ratio per record follows
test: Selectivity index, ratio of CC50 for human MRC-5 SV2 cells to IC50 for antitrypanosomal activity against nifurtimox-sensitive Trypanosoma cruzi Tulahuen CL2 infected in human MRC-5 SV2 cells; assay type: toxicity, cell-based; conditions: read-out: Ratio CC50/IC50
assay endpoint: selectivity ratio

* Nc1ncnc2c1c(-c1ccccc1)nn2[C@@H]1O[C@H](CO)[C@@H](O)[C@H]1O | > 5
* Nc1ncnc2c1c(/C=C/c1ccccc1)nn2[C@@H]1O[C@H](CO)[C@@H](O)[C@H]1O | > 4
* COc1cc(-c2nn([C@@H]3O[C@H](CO)[C@@H](O)[C@H]3O)c3ncnc(N)c23)ccc1Cl | > 56
* Cc1nn([C@@H]2O[C@H](CO)[C@@H](O)[C@H]2O)c2ncnc(N)c12 | 12
* Nc1ncnc2c1c(-c1c[nH]nn1)nn2[C@@H]1O[C@H](CO)[C@@H](O)[C@H]1O | 1
* C#Cc1nn([C@@H]2O[C@H](CO)[C@@H](O)[C@H]2O)c2ncnc(N)c12 | 20
* Nc1ncnc2c1c(N)nn2[C@@H]1O[C@H](CO)[C@@H](O)[C@H]1O | 3
* Nc1ncnc2c1c(-c1ccc(Cl)cc1)nn2[C@H]1C[C@H](O)[C@@H](CO)O1 | > 22
* Nc1ncnc2c1c(-c1cccs1)nn2[C@@H]1O[C@H](CO)[C@@H](O)[C@H]1O | 3
* NC(=O)c1nn([C@@H]2O[C@H](CO)[C@@H](O)[C@H]2O)c2ncnc(N)c12 | 1
* Nc1ncnc2c1c(-c1ccc(OC(F)(F)F)cc1)nn2[C@@H]1O[C@H](CO)[C@@H](O)[C@H]1O | > 4
* Nc1ncnc2c1c(-c1ccc(Cl)cc1)nn2[C@@H]1O[C@H](CO)C[C@H]1O | > 61
* Cc1cc(-c2nn([C@@H]3O[C@H](CO)[C@@H](O)[C@H]3O)c3ncnc(N)c23)ccc1Cl | > 79
* CCOc1cc(-c2nn([C@@H]3O[C@H](CO)[C@@H](O)[C@H]3O)c3ncnc(N)c23)ccc1Cl | > 1
* Nc1ncnc2c1cnn2[C@@H]1O[C@H](CO)[C@@H](O)[C@H]1O | > 219
* Nc1ncnc2c1c(-c1ccc(Cl)c(C(F)(F)F)c1)nn2[C@@H]1O[C@H](CO)[C@@H](O)[C@H]1O | > 1
* C=C(C)c1nn([C@@H]2O[C@H](CO)[C@@H](O)[C@H]2O)c2ncnc(N)c12 | < 1
* Nc1ncnc2c1c(-c1ccc([N+](=O)[O-])cc1)nn2[C@@H]1O[C@H](CO)[C@@H](O)[C@H]1O | > 6
* Nc1ncnc2c1c(-c1ccncc1)nn2[C@@H]1O[C@H](CO)[C@@H](O)[C@H]1O | > 3
* Nc1ncnc2c1c(-c1ccc(F)c(F)c1)nn2[C@@H]1O[C@H](CO)[C@@H](O)[C@H]1O | > 15
* Nc1ncnc2c1c(C(F)F)nn2[C@@H]1O[C@H](CO)[C@@H](O)[C@H]1O | < 1
* CNC(=O)c1nn([C@@H]2O[C@H](CO)[C@@H](O)[C@H]2O)c2ncnc(N)c12 | 16
* Nc1ncnc2c1c(C#Cc1ccccc1)nn2[C@@H]1O[C@H](CO)[C@@H](O)[C@H]1O | > 2
* Cn1cc(-c2nn([C@@H]3O[C@H](CO)[C@@H](O)[C@H]3O)c3ncnc(N)c23)cn1 | > 1
* CC(C)c1nn([C@@H]2O[C@H](CO)[C@@H](O)[C@H]2O)c2ncnc(N)c12 | < 1
* Cc1ccc(-c2nn([C@@H]3O[C@H](CO)[C@@H](O)[C@H]3O)c3ncnc(N)c23)cc1 | > 36
* Cc1ccc(-c2nn([C@@H]3O[C@H](CO)[C@@H](O)[C@H]3O)c3ncnc(N)c23)s1 | > 9
* Nc1ncnc2c1c(-c1ccc(Cl)cc1Cl)nn2[C@@H]1O[C@H](CO)[C@@H](O)[C@H]1O | > 11
* COc1ccc(-c2nn([C@@H]3O[C@H](CO)[C@@H](O)[C@H]3O)c3ncnc(N)c23)cc1 | > 4
* Nc1ncnc2c1c(Cl)nn2[C@@H]1O[C@H](CO)[C@@H](O)[C@H]1O | > 22
* Nc1ncnc2c1c(-c1ccc(Cl)cc1)nn2[C@@H]1O[C@H](CO)[C@@H](O)[C@H]1O | > 197
* Nc1ncnc2[nH]ncc12 | 5
* N#Cc1nn([C@@H]2O[C@H](CO)[C@@H](O)[C@H]2O)c2ncnc(N)c12 | 36
* Nc1ncnc2c1c(CCc1ccccc1)nn2[C@@H]1O[C@H](CO)[C@@H](O)[C@H]1O | > 1
* Nc1ncnc2c1c(-c1ccc(F)cc1)nn2[C@@H]1O[C@H](CO)[C@@H](O)[C@H]1O | > 19
* Nc1ncnc2c1c(C(F)(F)F)nn2[C@@H]1O[C@H](CO)[C@@H](O)[C@H]1O | < 1
* Nc1ncnc2c1c(Br)nn2[C@@H]1O[C@H](CO)[C@@H](O)[C@H]1O | > 15
